biological target: KRAS G12V (Homo sapiens, UniProt P01116, G12V); construct: 4 nM KRAS; aa1-188 containing the G12V, G12C, G12A or G12S amino acid substitution; assay: HTRF nucleotide exchange assay (NEA), KRAS G12V; type: biochemical
Sequence (P01116 1-188 isoform P01116-2 G12V): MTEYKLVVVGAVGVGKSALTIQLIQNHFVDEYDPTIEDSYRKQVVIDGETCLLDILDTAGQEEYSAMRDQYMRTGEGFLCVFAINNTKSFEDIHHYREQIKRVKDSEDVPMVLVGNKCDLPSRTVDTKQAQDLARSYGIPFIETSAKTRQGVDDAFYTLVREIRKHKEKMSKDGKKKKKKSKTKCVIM
pIC50: −log10 of the molar value.
recordedMetric: pIC50

O=C1CCN(c2nc(OCC34CCCN3CCC4)nc3c(F)c(-c4cc(O)cc5ccccc45)ncc23)CCO1 :: 5.00 to 7.00
O=C1NCCC12CCN(c1nc(OCC34CCCN3CCC4)nc3c(F)c(-c4cc(O)cc5ccccc45)ncc13)CC2 :: 5.00 to 7.00

// below: pIC50 requested for another molecule
[ask] For the molecule C#Cc1c(F)ccc2cc(O)cc(-c3ncc4c(N5CCC(O)CC5)nc(OC[C@@]56CCCN5C[C@H](F)C6)nc4c3F)c12 (relative stereo) , what pIC50 is on record?
[reply] ≥ 8.00
